Documented MIC SA across a set of compounds
Test system: S. aureus (ATCC 29213)
Assay: MIC determination, broth microdilution
Assay type: cell-based, Staphylococcus aureus
Settings: S. aureus ATCC 29213; MHB-II, inoculum 5 × 10^5 CFU/mL, 37 °C, 18–24 h, triplicate
Non-standard residues stand in square brackets, D forms with d. Residues, ends and D or L forms follow the SMILES beside them. *: point of attachment. Decanoyl = CCCCCCCCCC(=O)*; Hexanoyl = CCCCCC(=O)*

compound	measured.target	MIC SA [µg/mL]
CCCCCCCCCC(=O)N[C@H](CCCCN)C(=O)N[C@H](CCCCN)C(=O)N[C@H](CC(C)C)C(=O)N[C@H](Cc1ccccc1)C(=O)N[C@H](CCCCN)C(=O)N[C@H](CCCCN)C(=O)N[C@@H](C(=O)N[C@H](CC(C)C)C(=O)N[C@H](CCCNC(=N)N)C(=O)N[C@H](Cc1ccc(O)cc1)C(=O)N[C@H](CC(C)C)C(N)=O)[C@H](C)CC [compound 4] (Decanoyl-[dK][dK][dL][dF][dK][dK][dI][dL][dR][dY][dL]-NH2)	S. aureus (ATCC 29213)	32
CCCCCCCCCCCCCC(=O)N[C@H](CCCCN)C(=O)N[C@H](CCCCN)C(=O)N[C@H](CC(C)C)C(=O)N[C@H](Cc1ccccc1)C(=O)N[C@H](CCCCN)C(=O)N[C@H](CCCCN)C(=O)N1CCCC[C@H](C(N)=O)NC(=O)[C@@H](Cc2ccc(O)cc2)NC(=O)[C@@H](CCCNC(=N)N)NC(=O)[C@@H](CC(C)C)NC(=O)[C@@H]([C@H](C)CC)NC(=O)C1 [compound 18]	S. aureus (ATCC 29213)	4
CCCCCC(=O)N[C@H](CCCCN)C(=O)N[C@H](CCCCN)C(=O)N[C@H](CC(C)C)C(=O)N[C@H](Cc1ccccc1)C(=O)N[C@H](CCCCN)C(=O)N[C@H](CCCCN)C(=O)N[C@@H](C(=O)N[C@H](CC(C)C)C(=O)N[C@H](CCCNC(=N)N)C(=O)N[C@H](Cc1ccc(O)cc1)C(=O)N[C@H](CC(C)C)C(N)=O)[C@H](C)CC [compound 2] (Hexanoyl-[dK][dK][dL][dF][dK][dK][dI][dL][dR][dY][dL]-NH2)	S. aureus (ATCC 29213)	64
CCCCCCCCCCCCCC(=O)N[C@H](CCCCN)C(=O)N[C@H](CCCCN)C(=O)N[C@H](CC(C)C)C(=O)N[C@H](Cc1ccccc1)C(=O)N[C@H](CCCCN)C(=O)N[C@H](CCCCN)C(=O)N[C@@H](C(=O)N1CCCC[C@H](C(N)=O)NC(=O)[C@@H](Cc2ccc(O)cc2)NC(=O)[C@@H](CCCNC(=N)N)NC(=O)[C@@H](CC(C)C)NC(=O)C1)[C@H](C)CC [compound 15]	S. aureus (ATCC 29213)	4

---

Test system: A. baumannii (ATCC 19606)
Type: cell-based, Acinetobacter baumannii
Conditions: value in brackets; A. baumannii ATCC 19606; MHB-II, 37 °C, 18–24 h, triplicate
Non-standard residues stand in square brackets, D forms with d. Residues, ends and D or L forms follow the SMILES beside them. *: point of attachment. Lauroyl = CCCCCCCCCCCC(=O)*; Decanoyl = CCCCCCCCCC(=O)*; Octanoyl = CCCCCCCC(=O)*; Hexanoyl = CCCCCC(=O)*; Butyryl = CCCC(=O)*
experimental.readout: MIC AB (µM)

compound	experimental.readout	endpoint.unit	comparative.sign	test.result
CC[C@@H](C)[C@@H](NC(=O)[C@@H](CCCCN)NC(=O)[C@@H](CCCCN)NC(=O)[C@@H](Cc1ccccc1)NC(=O)[C@@H](CC(C)C)NC(=O)[C@@H](CCCCN)NC(=O)[C@H](N)CCCCN)C(=O)N[C@H](CC(C)C)C(=O)N1CCCC[C@H](C(N)=O)NC(=O)[C@@H](Cc2ccc(O)cc2)NC(=O)[C@@H](CCCNC(=N)N)NC(=O)C1 [compound 7]	MIC AB	µM	>	42.6
CCCCCCCCCC(=O)N[C@H](CCCCN)C(=O)N[C@H](CCCCN)C(=O)N[C@H](CC(C)C)C(=O)N[C@H](Cc1ccccc1)C(=O)N[C@H](CCCCN)C(=O)N[C@H](CCCCN)C(=O)N[C@@H](C(=O)N[C@H](CC(C)C)C(=O)N[C@H](CCCNC(=N)N)C(=O)N[C@H](Cc1ccc(O)cc1)C(=O)N[C@H](CC(C)C)C(N)=O)[C@H](C)CC [compound 4] (Decanoyl-[dK][dK][dL][dF][dK][dK][dI][dL][dR][dY][dL]-NH2)	MIC AB	µM	=	20.0
CCCC(=O)N[C@H](CCCCN)C(=O)N[C@H](CCCCN)C(=O)N[C@H](CC(C)C)C(=O)N[C@H](Cc1ccccc1)C(=O)N[C@H](CCCCN)C(=O)N[C@H](CCCCN)C(=O)N[C@@H](C(=O)N[C@H](CC(C)C)C(=O)N[C@H](CCCNC(=N)N)C(=O)N[C@H](Cc1ccc(O)cc1)C(=O)N[C@H](CC(C)C)C(N)=O)[C@H](C)CC [compound 1] (Butyryl-[dK][dK][dL][dF][dK][dK][dI][dL][dR][dY][dL]-NH2)	MIC AB	µM	=	1.3
CCCCCCCCCC(=O)N[C@H](CCCCN)C(=O)N[C@H](CCCCN)C(=O)N[C@H](CC(C)C)C(=O)N[C@H](Cc1ccccc1)C(=O)N[C@H](CCCCN)C(=O)N[C@H](CCCCN)C(=O)N[C@@H](C(=O)N[C@H](CC(C)C)C(=O)N1CCCC[C@H](C(N)=O)NC(=O)[C@@H](Cc2ccc(O)cc2)NC(=O)[C@@H](CCCNC(=N)N)NC(=O)C1)[C@H](C)CC [compound 10]	MIC AB	µM	=	2.4
CCCCCCCC(=O)N[C@H](CCCCN)C(=O)N[C@H](CCCCN)C(=O)N[C@H](CC(C)C)C(=O)N[C@H](Cc1ccccc1)C(=O)N[C@H](CCCCN)C(=O)N[C@H](CCCCN)C(=O)N[C@@H](C(=O)N[C@H](CC(C)C)C(=O)N[C@H](CCCNC(=N)N)C(=O)N[C@H](Cc1ccc(O)cc1)C(=O)N[C@H](CC(C)C)C(N)=O)[C@H](C)CC [compound 3] (Octanoyl-[dK][dK][dL][dF][dK][dK][dI][dL][dR][dY][dL]-NH2)	MIC AB	µM	=	2.5
CCCCCCCCCCCCCC(=O)N[C@H](CCCCN)C(=O)N[C@H](CCCCN)C(=O)N[C@H](CC(C)C)C(=O)N[C@H](Cc1ccccc1)C(=O)N[C@H](CCCCN)C(=O)N[C@H](CCCCN)C(=O)N[C@@H](C(=O)N1CCCC[C@H](C(N)=O)NC(=O)[C@@H](Cc2ccc(O)cc2)NC(=O)[C@@H](CCCNC(=N)N)NC(=O)[C@@H](CC(C)C)NC(=O)C1)[C@H](C)CC [compound 15]	MIC AB	µM	=	2.3
CCCCCCCCCCCC(=O)N[C@H](CCCCN)C(=O)N[C@H](CCCCN)C(=O)N[C@H](CC(C)C)C(=O)N[C@H](Cc1ccccc1)C(=O)N[C@H](CCCCN)C(=O)N[C@H](CCCCN)C(=O)N[C@@H](C(=O)N[C@H](CC(C)C)C(=O)N1CCCC[C@H](C(N)=O)NC(=O)[C@@H](Cc2ccc(O)cc2)NC(=O)[C@@H](CCCNC(=N)N)NC(=O)C1)[C@H](C)CC [compound 11]	MIC AB	µM	=	2.3
CCCCCCCCCCCC(=O)N[C@H](CCCCN)C(=O)N[C@H](CCCCN)C(=O)N[C@H](CC(C)C)C(=O)N[C@H](Cc1ccccc1)C(=O)N[C@H](CCCCN)C(=O)N[C@H](CCCCN)C(=O)N[C@@H](C(=O)N1CCCC[C@H](C(N)=O)NC(=O)[C@@H](Cc2ccc(O)cc2)NC(=O)[C@@H](CCCNC(=N)N)NC(=O)[C@@H](CC(C)C)NC(=O)C1)[C@H](C)CC [compound 14]	MIC AB	µM	=	2.4
CCCCCC(=O)N[C@H](CCCCN)C(=O)N[C@H](CCCCN)C(=O)N[C@H](CC(C)C)C(=O)N[C@H](Cc1ccccc1)C(=O)N[C@H](CCCCN)C(=O)N[C@H](CCCCN)C(=O)N[C@@H](C(=O)N[C@H](CC(C)C)C(=O)N[C@H](CCCNC(=N)N)C(=O)N[C@H](Cc1ccc(O)cc1)C(=O)N[C@H](CC(C)C)C(N)=O)[C@H](C)CC [compound 2] (Hexanoyl-[dK][dK][dL][dF][dK][dK][dI][dL][dR][dY][dL]-NH2)	MIC AB	µM	=	2.6
CCCCCCCCCCCC(=O)N[C@H](CCCCN)C(=O)N[C@H](CCCCN)C(=O)N[C@H](CC(C)C)C(=O)N[C@H](Cc1ccccc1)C(=O)N[C@H](CCCCN)C(=O)N[C@H](CCCCN)C(=O)N[C@@H](C(=O)N[C@H](CC(C)C)C(=O)N[C@H](CCCNC(=N)N)C(=O)N[C@H](Cc1ccc(O)cc1)C(=O)N[C@H](CC(C)C)C(N)=O)[C@H](C)CC [compound 5] (Lauroyl-[dK][dK][dL][dF][dK][dK][dI][dL][dR][dY][dL]-NH2)	MIC AB	µM	=	39.2

# credit: paper PMC9404711
